Tested on: PBMC
Assay: Antiinflammatory activity in human PBMC assessed as inhibition of LPS-induced TNFalpha production treated for 30 mins followed by 5 hrs LPS challenge by ELISA assay
Format: functional, cell-based
Settings: read-out: IC50
pIC50: −log10 of the molar value.
measured.endpoint: pIC50

[[record]]
compound = "COc1ccc(CCC(=O)/C=C/CCc2cccnc2)c(OC)c1"
readout_value = 5.70

[[record]]
compound = "COc1ccc(COc2cc(CCC(=O)CC(O)CCc3cccnc3)ccc2OC)cc1 (centres undefined)"
readout_value = 5.24

[[record]]
compound = "COc1ccc(COc2ccc(CCC(=O)/C=C/CCc3cccnc3)cc2OC)cc1"
readout_value = 4.62

[[record]]
compound = "COc1ccc(CCC(=O)/C=C/CCc2cccnc2)cc1OC"
readout_value = 5.60

